I'd appreciate it if you could supply MFI values for the items below.
# System tested: M2 protein of influenza A/Hong Kong/483/1997 (H5N1), expressed on cells (influenza A virus H5N1 A/Hong Kong/483/97)
State the value with its unit after it.

Give recorded MFI. 3248_P18 (antibody, V domains shown) VH: QVQLQESGPGLVKPSETLSLTCTVSGGSISAYHWSWIRQPPGKGLEWIGHIFDSGSTYYNPSLKSRVTISLDASKNQLSLRLTSVTASDTAIYYCARPLGSRYYYGMDVWGQGTTVTVSS VL: DIQMTQSPSSLSASVGDRVTITCRASQSISRYLNWYQQKPGKAPKLLIYGASTLQNGAPSRFSGSGSGTDFTLTISSLQPEDSATYLCQQSYSVPAFGGGTKVEVK
967 MFI

Give recorded MFI. 3139_P23 (antibody, V domains shown) VH: QVQLQESGPRLVKPSESLSLTCTVSGGSISNSFWGWIRQPPGEGLEWIGYVYNSGNTKYNPSLKSRVTISRDTSKSQLYMKLRSVTAADTAVYYCARHDDASHGYSISWGHGTLVTVSS VL: DIQMTQSPSSLSASVGDRVTITCRASQTISTYLNWYQQKSGKAPKLLIYAASGLQSGVPSRFSGSGSGTDFTLTISSLQPEDFATYFCQQSYNTPLTFGQGTKVEIK
110 MFI

Give recorded MFI. 3362_B11 (antibody, V domains shown) VH: QVQLQASGPGLVKPSETLSLTCTVSGDSITSGAYYWTWIRQHPGKGLEWIGYIYYSGNTYYNPSLKSRVTISLDTSKNQFSLKVNSVTAADTAVYYCARAASTSVLGYGMDVWGQGTTVTVSS VL: DIQMTQSPSSLSASVGDRVTITCRASQSISRYLNWYQQEPGKAPKLLVYAASSLQSGVPSRFSGSGSGTDFTLTISSLQPEDFATYYCQQSYSTPLTFGQGTRLEIK
218 MFI
